- System: Huh7 cells
- Assay Text: LD content in Huh7 cells pre-treated with insulin, Oil-Red-O staining, absorbance OD 540 nm
- Assay type: cell-based
- Condition Label: Homo sapiens, Huh-7, Huh7 cells, procedure of Example 3; read-out: LD content inhibition (EC50)
- Experimental: FIG. 6. […] Spectrophotometric absorbance of untreated or HPN-01-treated Huh7 cells pre-incubated with 1 mM insulin is shown. LD contents were stained using Oil Red O, and measured by determining spectrophotometer absorbance under OD 540 nm. Huh7 cells were mock treated or pre-treated with 1 mM insulin, and subsequently treated with indicated amounted of HPN-01. […]
Attribute Measured: EC50 (µM)

Reference set, count: 2
{"Compound": "NC(=O)c1cc(-c2ccc(Br)cc2)cc(-c2ccc(S(N)(=O)=O)cc2)c1NC(=O)CCO", "EC50 [µM]": 0.68}
{"Compound": "Nc1c(C(=O)NCc2cccnc2)cc(-c2ccc(Cl)cc2)cc1-c1ccc(S(N)(=O)=O)cc1", "EC50 [µM]": 2.39}

[A] NC(=O)c1cc(-c2ccc(Cl)cn2)cc(-c2ccc(S(N)(=O)=O)cc2)c1N
[B] NC(=O)c1cc(-c2ccc(Cl)cc2)cc(Oc2cccc(-c3nn[nH]n3)c2)c1N
Between A and B , which one shows the smaller EC50 number? Selection: enter the item's label. B
